System: M14 melanoma
Assay: NCI-60 one-dose screen, 48 h (100 = growth as untreated, 0 = no growth, -100 = all killed)
Settings: 10 µM unless noted
This is part of a sample that, as a whole, favours compounds with a hit. Of some 83,000 tested, about 20% had one in any assay.
Entry flag: 1 if growth reaches 10%; 0 if it does not.

Please review the entries below; each comes with its answer.
Cn1c2ccc(Br)cc2c2c3c(c4c5ccccc5[nH]c4c21)C(=O)N(O)C3=O: 0
NC1N=C(SCC(=O)N2CCN(c3cc4c(cc3F)c(=O)c(C(=O)O)cn4C3CC3)CC2)NC(=O)/C1=C/c1ccc(Cl)cc1 (stereo not given): 1

Is growth at least 10%? Consider COc1cccc(CC(C)=C(c2ccc(OCCN3CCCCC3)cc2)c2ccc(OCCN3CCCCC3)cc2)c1
0

Is growth at least 10%? Consider CC(C)CSc1nc(NN)c(C#N)c(-c2ccccc2)n1
1

Is growth at least 10%? Consider COc1ccc(/C=C(\C#N)c2cc(OC)c3c(c2)OCO3)cc1
1

src = PubChem BioAssay (NCI)
